Values were extracted from patent US20260124214A1.

Dear all, this message contains log10(Ki) results, target or system Human Polθ polymerase domain (aa1820-2590) (Homo sapiens).
Structures can show the parent of a compound that is named as a salt.
Hi team, quick reminder: these entries are log10 of Ki (nM).

IN: Return reported log10(Ki); argument: C=CCN1C[C@H]2CC(=O)N(c3cc(C(F)(F)F)cc(C)n3)[C@@H]2C(=O)N(C)c2cccc(Cl)c21
OUT: 0.17

IN: Return reported log10(Ki); argument: Cc1cc(C(F)(F)F)cc(N2C(=O)C[C@@H]3CN(CCN4CC[C@@H](C#N)C4)c4c(Cl)cccc4N(C)C(=O)[C@H]32)n1
OUT: 0.47

IN: Return reported log10(Ki); argument: Cc1cc(C(F)(F)F)cc(N2C(=O)C[C@@H]3CN(CCN4CCN(C)C[C@@H]4CO)c4c(C)cccc4N(C)C(=O)[C@H]32)n1 [Example 65, dihydrochloride]
OUT: 0.14

IN: Return reported log10(Ki); argument: Cc1cc(C(F)(F)F)cc(N2C(=O)C[C@@H]3CN(CCN4C[C@@H](C)N[C@@H](C)C4)c4c(C)cccc4N(C)C(=O)[C@H]32)n1 (relative stereo) [Example 45, dihydrochloride]
OUT: -0.19

IN: Return reported log10(Ki); argument: Cc1cc(C(F)(F)F)cc(N2C(=O)C[C@@H]3CN(CCCN4CCOCC4)c4c(F)cccc4N(C)C(=O)[C@H]32)n1
OUT: 1.00

IN: Return reported log10(Ki); argument: Cc1cc(C(F)(F)F)cc(N2C(=O)C[C@@H]3CN(CC(C)O)c4c(F)cccc4N(C)C(=O)[C@H]32)n1 (single isomer, unassigned) [Example 130b]
OUT: 1.01

IN: Return reported log10(Ki); argument: Cc1cc(C(F)(F)F)cc(N2C(=O)C[C@@H]3CN(C[C@H]4COCCN4C)c4c(Cl)cccc4N(C)C(=O)[C@H]32)n1 (racemic) [Example 119a]
OUT: 0.11

###

# test-target: Human Polθ polymerase domain (aa1820-2590) (Homo sapiens, UniProt O75417)
# Sequence (O75417 1820-2590): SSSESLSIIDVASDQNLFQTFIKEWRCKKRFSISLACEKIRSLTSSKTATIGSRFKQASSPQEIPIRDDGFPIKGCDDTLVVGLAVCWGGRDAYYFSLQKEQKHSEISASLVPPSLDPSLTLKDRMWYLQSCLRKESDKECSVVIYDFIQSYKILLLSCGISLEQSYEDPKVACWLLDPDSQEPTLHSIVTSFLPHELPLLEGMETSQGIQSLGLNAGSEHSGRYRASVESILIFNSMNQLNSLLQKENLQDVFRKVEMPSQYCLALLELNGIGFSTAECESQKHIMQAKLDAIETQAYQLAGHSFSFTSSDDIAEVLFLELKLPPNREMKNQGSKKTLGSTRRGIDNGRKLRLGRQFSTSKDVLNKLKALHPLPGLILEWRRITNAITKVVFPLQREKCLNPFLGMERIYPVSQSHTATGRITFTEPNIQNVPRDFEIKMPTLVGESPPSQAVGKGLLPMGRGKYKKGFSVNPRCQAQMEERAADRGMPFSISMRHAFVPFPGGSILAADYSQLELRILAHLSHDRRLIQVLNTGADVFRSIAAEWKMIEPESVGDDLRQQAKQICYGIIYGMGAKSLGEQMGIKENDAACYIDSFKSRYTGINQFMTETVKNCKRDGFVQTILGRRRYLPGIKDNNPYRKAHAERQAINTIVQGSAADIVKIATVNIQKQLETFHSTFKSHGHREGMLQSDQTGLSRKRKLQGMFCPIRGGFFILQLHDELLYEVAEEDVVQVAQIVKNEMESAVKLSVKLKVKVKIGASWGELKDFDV
Structures can show the parent of a compound that is named as a salt.
parameter: pKi
Remember, pKi is on a log scale: it is -log10 of the molar concentration.

IN: Return reported pKi; argument: Cc1cc(C(F)(F)F)cc(N2C(=O)C[C@@H]3CN(CC4CCCCN4)c4c(Cl)cccc4N(C)C(=O)[C@H]32)n1 (single isomer, unassigned) [Example 105a]
OUT: 8.07

IN: Return reported pKi; argument: Cc1cc(C(F)(F)F)cc(N2C(=O)C[C@@H]3CN(CCCN4CCOCC4)c4c(Cl)cccc4N(C)C(=O)[C@H]32)n1 [Example 136, hydrochloride]
OUT: 9.10

IN: Return reported pKi; argument: Cc1cc(C(F)(F)F)cc(N2C(=O)C[C@@H]3CN(CC4CCN(C5COC5)CC4)c4c(Cl)cccc4N(C)C(=O)[C@H]32)n1
OUT: 9.21

IN: Return reported pKi; argument: Cc1cc(C(F)(F)F)cc(N2C(=O)C[C@@H]3CN(CC4COCCN4)c4c(Cl)cccc4N(C)C(=O)[C@H]32)n1 (single isomer, unassigned) [Example 108b]
OUT: 8.81

IN: Return reported pKi; argument: Cc1cc(C(F)(F)F)cc(N2C(=O)C[C@@H]3CN(C[C@@H]4CCNC4)c4c(C)cccc4N(C)C(=O)[C@H]32)n1 [Example 103, hydrochloride]
OUT: 8.61

IN: Return reported pKi; argument: Cc1cc(C(F)(F)F)cc(N2C(=O)C[C@@H]3CN(CCN4CC[C@@H](C(=O)N(C)C)C4)c4c(C)cccc4N(C)C(=O)[C@H]32)n1
OUT: 8.09

###

# test-target: Human Polθ polymerase domain (aa1820-2590) (Homo sapiens, UniProt O75417)
# Sequence (O75417 1820-2590): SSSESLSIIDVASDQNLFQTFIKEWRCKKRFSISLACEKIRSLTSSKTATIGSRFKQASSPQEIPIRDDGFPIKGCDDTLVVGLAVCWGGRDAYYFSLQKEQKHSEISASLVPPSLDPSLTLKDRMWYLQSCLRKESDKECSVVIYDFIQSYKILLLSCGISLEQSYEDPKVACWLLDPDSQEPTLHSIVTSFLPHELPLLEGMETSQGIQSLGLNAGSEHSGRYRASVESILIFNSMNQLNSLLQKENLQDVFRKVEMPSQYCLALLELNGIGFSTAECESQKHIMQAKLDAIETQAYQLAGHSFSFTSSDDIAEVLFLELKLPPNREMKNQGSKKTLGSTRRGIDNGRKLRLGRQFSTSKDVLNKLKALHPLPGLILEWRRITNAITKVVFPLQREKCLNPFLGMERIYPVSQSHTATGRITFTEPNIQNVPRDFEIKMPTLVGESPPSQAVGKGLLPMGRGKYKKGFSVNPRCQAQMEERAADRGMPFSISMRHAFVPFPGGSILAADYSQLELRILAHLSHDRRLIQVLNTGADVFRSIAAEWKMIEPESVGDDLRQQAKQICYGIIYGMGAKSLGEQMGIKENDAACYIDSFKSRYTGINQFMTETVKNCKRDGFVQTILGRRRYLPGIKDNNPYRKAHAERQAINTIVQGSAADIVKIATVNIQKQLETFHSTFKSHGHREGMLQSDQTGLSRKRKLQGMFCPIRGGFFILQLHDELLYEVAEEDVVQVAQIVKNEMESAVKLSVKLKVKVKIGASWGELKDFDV
Structures can show the parent of a compound that is named as a salt.
So I've got a bunch of compounds here, and I need their log10 of Ki values.
Hi team, quick reminder: these entries are log10 of Ki (nM).

IN: Return reported log10 of Ki; argument: Cc1cc(C(F)(F)F)cc(N2C(=O)C[C@@H]3CN(Cc4cn5c(n4)[C@H](C)N(C)CC5)c4c(C)cccc4N(C)C(=O)[C@H]32)n1 (racemic) [Example 116b]
OUT: -0.38

IN: Return reported log10 of Ki; argument: Cc1cc(C(F)(F)F)cc(N2C(=O)C[C@@H]3CN(CC(C)O)c4c(Cl)cccc4N(C)C(=O)[C@H]32)n1 (single isomer, unassigned) [Example 131b]
OUT: 0.28

IN: Return reported log10 of Ki; argument: Cc1cc(C(F)(F)F)cc(N2C(=O)C[C@@H]3CN(CC4COCCN4)c4c(C)cccc4N(C)C(=O)[C@H]32)n1 (single isomer, unassigned) [Example 112a]
OUT: 0.62

IN: Return reported log10 of Ki; argument: Cc1cc(C(F)(F)F)cc(N2C(=O)C[C@@H]3CN(Cc4nnc5n4CCNC5)c4c(Cl)cccc4N(C)C(=O)[C@H]32)n1 [Example 101, hydrochloride]
OUT: 0.57

IN: Return reported log10 of Ki; argument: Cc1cc(C(F)(F)F)cc(N2C(=O)C[C@@H]3CN(CC4CCCN4C)c4c(Cl)cccc4N(C)C(=O)[C@H]32)n1 (single isomer, unassigned) [Example 118a]
OUT: 0.93

IN: Return reported log10 of Ki; argument: Cc1cc(C(F)(F)F)cc(N2C(=O)C[C@@H]3CN(CCN4CCN(C(=O)[C@H](C)O)CC4)c4c(C)cccc4N(C)C(=O)[C@H]32)n1 [Example 52, hydrochloride]
OUT: -0.02

IN: Return reported log10 of Ki; argument: Cc1cc(C(F)(F)F)cc(N2C(=O)C[C@@H]3CN(CC4CCCNC4)c4c(F)cccc4N(C)C(=O)[C@H]32)n1 (some centres unmarked) [Example 97, hydrochloride]
OUT: 0.94

IN: Return reported log10 of Ki; argument: Cc1cc(C(F)(F)F)cc(N2C(=O)C[C@@H]3CN(C[C@@H]4CCN(C)[C@H](C)C4)c4c(Cl)cccc4N(C)C(=O)[C@H]32)n1 (single isomer, unassigned) [Example 126b]
OUT: 0.28

IN: Return reported log10 of Ki; argument: Cc1cc(C(F)(F)F)cc(N2C(=O)C[C@@H]3CN(C[C@@H]4CCCCN4C)c4c(Cl)cccc4N(C)C(=O)[C@H]32)n1 (racemic) [Example 117b]
OUT: 0.61

IN: Return reported log10 of Ki; argument: Cc1cc(C(F)(F)F)cc(N2C(=O)C[C@@H]3CN(CCN4CCN(C)C[C@@H]4C)c4c(C)cccc4N(C)C(=O)[C@H]32)n1 [Example 49, dihydrochloride]
OUT: -0.34

IN: Return reported log10 of Ki; argument: Cc1cc(C(F)(F)F)cc(N2C(=O)C[C@@H]3CN(C[C@H]4CCNC[C@H]4C#N)c4c(Cl)cccc4N(C)C(=O)[C@H]32)n1 (relative stereo) [Example 102, hydrochloride]
OUT: 0.25

IN: Return reported log10 of Ki; argument: Cc1cc(C(F)(F)F)cc(N2C(=O)C[C@@H]3CN(CCN4C[C@@H]5C[C@H]4CN5C)c4c(C)cccc4N(C)C(=O)[C@H]32)n1 [Example 62, dihydrochloride]
OUT: 0.00

IN: Return reported log10 of Ki; argument: Cc1cc(C(F)(F)F)cc(N2C(=O)C[C@@H]3CN(CCN4C[C@H]5C[C@@H]4CN5C)c4c(C)cccc4N(C)C(=O)[C@H]32)n1 [Example 61, dihydrochloride]
OUT: -0.12

IN: Return reported log10 of Ki; argument: Cc1cc(C(F)(F)F)cc(N2C(=O)C[C@@H]3CN(CC4CCCN4)c4c(Cl)cccc4N(C)C(=O)[C@H]32)n1 (single isomer, unassigned) [Example 107a]
OUT: 0.59
